# assay.target: T1, human ErbB3 extracellular domain (ECD, residues 21-643) (Homo sapiens, UniProt P21860)
# T1 construct: ErbB3 (HER3) receptor, human, extracellular domain, residues 21-643; secreted with the Igκ leader of the pEE vector; Glycosylated, MW 75 kDa; also called ErbB3 ECD; HER3 extracellular domain; source: CHO-T-HC cells, transiently transfected, secreted, purified (IMAC on HisTrap, SEC on Superdex 200 pg)
# T1 sequence (P21860 21-643 R488S): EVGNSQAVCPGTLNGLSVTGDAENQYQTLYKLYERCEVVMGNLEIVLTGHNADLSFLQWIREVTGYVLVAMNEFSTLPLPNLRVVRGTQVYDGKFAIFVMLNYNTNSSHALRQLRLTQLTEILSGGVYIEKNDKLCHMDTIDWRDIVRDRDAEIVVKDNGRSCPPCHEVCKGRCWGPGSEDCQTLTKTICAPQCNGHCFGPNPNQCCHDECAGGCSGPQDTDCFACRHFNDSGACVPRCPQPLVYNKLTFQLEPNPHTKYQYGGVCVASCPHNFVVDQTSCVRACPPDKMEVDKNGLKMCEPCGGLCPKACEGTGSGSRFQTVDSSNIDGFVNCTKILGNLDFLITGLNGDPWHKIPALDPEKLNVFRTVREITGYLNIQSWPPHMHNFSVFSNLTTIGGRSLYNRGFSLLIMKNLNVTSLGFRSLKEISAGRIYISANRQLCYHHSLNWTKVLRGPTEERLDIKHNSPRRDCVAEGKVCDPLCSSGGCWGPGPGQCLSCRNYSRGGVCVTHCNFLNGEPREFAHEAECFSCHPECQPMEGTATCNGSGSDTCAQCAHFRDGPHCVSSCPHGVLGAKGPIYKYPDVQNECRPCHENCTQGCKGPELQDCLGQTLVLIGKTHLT
# assay.overview: SPR; ErbB3 ECD immobilised on a CM5 chip by amine coupling; Biacore T200, 37 °C; HBS with 50 µg/mL BSA; equilibrium response read 5 s before injection end, fitted by the Hill equation; geometric means of two experiments
# condition.parameters: both partners purified
metric.name: pKd
Kindly note that pKd refers to -log10 of the concentration in mol/L and answer with the value alone.

Measured pKd, BCD090-M456 (VHH, llama VHH from a phage display library; the product left after TEV cleavage; Lacks the Cys22-Cys92 disulfide bond (cysteines reduced); CDR H3 of 23 residues; also called anti-ErbB3 single-domain antibody BCD090-M456; source: E. coli SHuffle T7 express or BL21(DE3), cytoplasmic, purified (IMAC, TEV cleavage, negative IMAC, ion exchange); not shown: His tag, N-terminal, cleaved; SUMO, N-terminal, …) VHH: QVQLVQSGGGLVQSGGSLKLSCVASGGPFSTYLMGWFRQAPGKEREFVTAISRSGLNTYYADSVKGRFTISRDNAKNTVYLQMHSLKPEDTAVYHCAARRGGTNSGSYYFDRPAVSDEYDLWGQGTLVTVSS : 5.07

Summary for this binder, pelB-BCD090-P1-His5 (VHH, as the VHH of m1 (BCD090-P1), with the uncleaved pelB leader and a histidine tag; also called BCD090-P1 purified from the periplasm; periplasmically expressed BCD090-P1; source: E. coli, periplasmic expression (pET22b), purified; not shown: pelB leader (uncleaved), N-terminal, kept; His5, C-terminal, kept) VHH: EVQLVQSGGGLVQPGGSLRLSCAASGRTSSKYAMGWFRQAPGKGTEFVATISWSDGSTYYADSVEGRFTISRDNAKNTVYLQMNSLKPEDTAVYYCAAAVDVLAGTFEYEYDYWGQGTLVTVSS : pKd is 8.19

Field pKd (entry BCD090-M2 (VHH, llama VHH from a phage display library; the product left after TEV cleavage; no PDB id is printed; also called anti-ErbB3 single-domain antibody BCD090-M2; source: E. coli SHuffle T7 express, cytoplasmic, purified (IMAC, TEV cleavage, negative IMAC, ion exchange); not shown: His tag, N-terminal, cleaved; SUMO, N-terminal, cleaved) VHH: QVQLVQSGGGLVQAGGSLRLSCAFSGRTFSMYTMGWFRQAPGKEREFVAANRGRGLSPDIADSVNGRFTISRDNAKNTLYLQMDSLKPEDTAVYYCAADLQYGSSWPQRSSAEYDYWGQGTTVTVSS ) reads 7.82

get_value(item= BCD090-P1 (VHH, llama VHH from a phage display library; the product left after TEV cleavage; Monomer by SEC; One disulfide bond Cys22-Cys92; also called anti-ErbB3 single-domain antibody BCD090-P1; source: E. coli SHuffle T7 express or BL21(DE3), cytoplasmic, purified (IMAC, TEV cleavage, negative IMAC, ion exchange); not shown: His tag, N-terminal, cleaved; SUMO, N-terminal, cleaved) VHH: EVQLVQSGGGLVQPGGSLRLSCAASGRTSSKYAMGWFRQAPGKGTEFVATISWSDGSTYYADSVEGRFTISRDNAKNTVYLQMNSLKPEDTAVYYCAAAVDVLAGTFEYEYDYWGQGTLVTVSS , readout=pKd) returns 8.79
